Test: CCTE_Shafer_MEA_dev_LDH: CCTE's Lactate Dehydrogenase Assay for Cytotoxicity in the Neural Network Formation Assay, Shafer Lab (AID 2284068);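 further: exposure for twelve days from plating with re-dosing on DIV 5 and 9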
Results filed as inconclusive are left out. Active and inactive are the calls of the source. How the source made its calls: active means hit-call score of the fitted dose curve at least 0.9, where 1 is the maximum; inconclusive means response in the unintended direction; inactive means score below 0.9.
Classes used: active, inactive

compound	label
O=C1CCC(N2C(=O)c3ccccc3C2=O)C(=O)N1 (stereo unspecified)	inactive
O=P(OC(CCl)CCl)(OC(CCl)CCl)OC(CCl)CCl	inactive
CCC(C)(C)C(=O)O[C@H]1C[C@@H](C)C=C2C=C[C@H](C)[C@H](CC[C@@H]3C[C@@H](O)CC(=O)O3)[C@H]21	active
COc1ccc(-n2nc(C(F)F)cc2-c2ccc(S(C)=O)cc2)cc1 (stereo unspecified)	active
CC[C@H](C)C(=O)O[C@H]1C[C@@H](C)C=C2C=C[C@H](C)[C@H](CC[C@@H]3C[C@@H](O)CC(=O)O3)[C@H]21	active
Nc1nc2ncc(CNc3ccc(C(=O)N[C@@H](CCC(=O)O)C(=O)O)cc3)nc2c(=O)[nH]1	inactive
